Ref: patent US12030883B2

Assay system: KRAS G12V (Homo sapiens, UniProt P01116, G12V)
Sequence (P01116 1-188 isoform P01116-2 G12V): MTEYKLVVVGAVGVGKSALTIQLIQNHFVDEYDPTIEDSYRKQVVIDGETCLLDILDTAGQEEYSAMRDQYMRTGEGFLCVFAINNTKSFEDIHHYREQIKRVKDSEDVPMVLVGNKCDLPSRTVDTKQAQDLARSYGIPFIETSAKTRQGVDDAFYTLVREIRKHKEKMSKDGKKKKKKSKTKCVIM
Assay notes: GDP-GTP exchange assay, KRAS G12V (bodipy-GDP/GppNHp, SOS1)
Condition label: bodipy-loaded KRAS G12V 2.5 nM, 3 hours pre-incubation with inhibitor, SOS1 150 nM, GppNHp 500 uM; read-out: G12V_exchange (KRAS_G12V exchange assay IC50)

>  <Compound>
Cn1cnc(-c2nc3c(F)c(-c4cc(O)cc5ccccc45)c(CCC#N)cc3c3c2NC(=O)CN3C2C3CNC2C3)c1 (single isomer, unassigned) [Example 7a]

>  <IC50>
≤ 100 nM

$$$$
>  <Compound>
C[C@@H](CN(C)C)Oc1nc2c(F)c(-c3cc(O)cc4ccccc34)c(CCC#N)cc2c2c1CCCN2C1C2CNC1C2 (single isomer, unassigned) [Example 16b]

>  <IC50>
≤ 100 nM

$$$$
>  <Compound>
CNC(=O)c1cccc(-c2nc3c(F)c(-c4cc(O)cc5ccccc45)c(CCC#N)cc3c3c2NC(=O)CN3C2C3CNC2C3)c1 (single isomer, unassigned) [Example 9b]

>  <IC50>
1000 to 5000 nM

$$$$
>  <Compound>
C[C@H](Oc1nc2c(F)c(-c3cc(O)cc4ccc(F)cc34)c(CCC#N)cc2c2c1NC(=O)CN2C1C2CNC1C2)[C@@H]1CCCN1C (single isomer, unassigned) [Example 4b]

>  <IC50>
100 to 1000 nM

$$$$
>  <Compound>
C[C@H](Oc1nc2c(F)c(-c3cc(O)cc4ccccc34)c(CCC#N)cc2c2c1CCCN2C1C2CNC1C2)[C@@H]1CCCN1C (single isomer, unassigned) [Example 15a]

>  <IC50>
1000 to 5000 nM

$$$$

====

Assay system: KRAS G12V (Homo sapiens, UniProt P01116, G12V)
Assay notes: GDP-GTP exchange assay, KRAS G12V (bodipy-GDP/GppNHp, SOS1)
Condition label: bodipy-loaded KRAS G12V 2.5 nM, 3 hours pre-incubation with inhibitor, SOS1 150 nM, GppNHp 500 uM; read-out: G12V_exchange (KRAS_G12V exchange assay IC50)
Readout name: IC50

>  <Compound>
N#CCCc1cc2c3c(c(OC[C@@]45CCCN4C[C@H](F)C5)nc2c(F)c1-c1cc(O)cc2ccccc12)NC(=O)CN3C1C2CNC1C2 (single isomer, unassigned) [Example 10c]

>  <Value reported>
0.1 to 1 µM

$$$$
>  <Compound>
N#CCCc1cc2c3c(cnc2c(F)c1-c1cc(O)cc2ccccc12)N(CCC1CCNCC1)C(=O)CN3C1C2CNC1C2 (single isomer, unassigned) [Example 18a]

>  <Value reported>
0.1 to 1 µM

$$$$
>  <Compound>
CNC(=O)c1ccc(-c2nc3c(F)c(-c4cc(O)cc5ccccc45)c(CCC#N)cc3c3c2NC(=O)CN3C2C3CNC2C3)cn1 (single isomer, unassigned) [Example 5b]

>  <Value reported>
1 to 5 µM

$$$$
>  <Compound>
N#CCCc1cc2c3c(c(OC[C@@]45CCCN4C[C@H](F)C5)nc2c(F)c1-c1cc(O)cc2ccccc12)NC(=O)CN3C1C2CNC1C2 (single isomer, unassigned) [Example 10a]

>  <Value reported>
≤ 0.1 µM

$$$$
>  <Compound>
N#CCCc1cc2c3c(c(Cc4ccccc4)nc2c(F)c1-c1cc(O)cc2ccccc12)NC(=O)CN3C1C2CNC1C2 (single isomer, unassigned) [Example 8b]

>  <Value reported>
5 to 10 µM

$$$$
